Listed next: entries and their corresponding % Dose in Lung 5 min.
- assayExplanation: Pharmacokinetics in plasma and lung in mouse, intratracheal instillation
- Type: in vivo
- runParameters: male CD1 mice, 5 min
Form entry: value (%) — number only.

Look over these answered cases.
{"compound": "COC[C@H](C(=O)Nc1cccc2c(-c3nc(Nc4ccc(-c5cnco5)nc4)ncc3F)c[nH]c12)N1CCN(C)CC1 [Example 40]", "% Dose in Lung 5 min, %": 58.6}
{"compound": "COC[C@H](C(=O)Nc1cccc2c(-c3nc(Nc4ccc(NC(=O)CO)nc4)ncc3F)c[nH]c12)N1CCN(C)CC1 [Example 8]", "% Dose in Lung 5 min, %": 62.7}
{"compound": "COC[C@H](C(=O)Nc1cccc2c(-c3nc(Nc4ccc5sc(CO)nc5c4)ncc3F)c[nH]c12)N1CCN(C)CC1 [Example 38]", "% Dose in Lung 5 min, %": 79.9}
{"compound": "CCC(=O)Nc1ccc(Nc2ncc(F)c(-c3c[nH]c4c(NC(=O)[C@@H](COC)N5CCN(C)CC5)cccc34)n2)cn1 [Example 5]", "% Dose in Lung 5 min, %": 101.6}

Okay, next one:
Record request: % Dose in Lung 5 min value, item COC[C@H](C(=O)Nc1cccc2c(-c3nc(Nc4ccnc(CO)c4)ncc3F)c[nH]c12)N1CCN(C)CC1 [Example 2] 18.1

----------
- assayExplanation: Pharmacokinetics in plasma and lung in mouse, intratracheal instillation
- Assay type: in vivo
- runParameters: mouse, lung/plasma, other: intratracheal instillation, male CD1 mice, 5 min, read-out: Conc. Ratio (Lung/Plasma) 5 min
readoutKind: Kp at 5 min
// return a plain number; no unit text

Look over these answered cases.
{"molecularString": "COC[C@H](C(=O)Nc1cccc2c(-c3nc(Nc4ccc(NC(=O)CO)nc4)ncc3F)c[nH]c12)N1CCN(C)CC1", "val": 296}
{"molecularString": "CCC(=O)Nc1ccc(Nc2ncc(F)c(-c3c[nH]c4c(NC(=O)[C@@H](COC)N5CCN(C)CC5)cccc34)n2)cn1", "val": 2100}
{"molecularString": "COC[C@H](C(=O)Nc1cccc2c(-c3nc(Nc4ccnc(CO)c4)ncc3F)c[nH]c12)N1CCN(C)CC1", "val": 399}
{"molecularString": "COC[C@H](C(=O)Nc1cccc2c(-c3nc(Nc4ccc(-c5cnco5)nc4)ncc3F)c[nH]c12)N1CCN(C)CC1", "val": 824}

Record request: Kp at 5 min value, item COC[C@H](C(=O)Nc1cccc2c(-c3nc(Nc4ccc5sc(CO)nc5c4)ncc3F)c[nH]c12)N1CCN(C)CC1 965

----------
- testedOn: JAK1 (Homo sapiens, UniProt P23458)
- Sequence (P23458 whole entry): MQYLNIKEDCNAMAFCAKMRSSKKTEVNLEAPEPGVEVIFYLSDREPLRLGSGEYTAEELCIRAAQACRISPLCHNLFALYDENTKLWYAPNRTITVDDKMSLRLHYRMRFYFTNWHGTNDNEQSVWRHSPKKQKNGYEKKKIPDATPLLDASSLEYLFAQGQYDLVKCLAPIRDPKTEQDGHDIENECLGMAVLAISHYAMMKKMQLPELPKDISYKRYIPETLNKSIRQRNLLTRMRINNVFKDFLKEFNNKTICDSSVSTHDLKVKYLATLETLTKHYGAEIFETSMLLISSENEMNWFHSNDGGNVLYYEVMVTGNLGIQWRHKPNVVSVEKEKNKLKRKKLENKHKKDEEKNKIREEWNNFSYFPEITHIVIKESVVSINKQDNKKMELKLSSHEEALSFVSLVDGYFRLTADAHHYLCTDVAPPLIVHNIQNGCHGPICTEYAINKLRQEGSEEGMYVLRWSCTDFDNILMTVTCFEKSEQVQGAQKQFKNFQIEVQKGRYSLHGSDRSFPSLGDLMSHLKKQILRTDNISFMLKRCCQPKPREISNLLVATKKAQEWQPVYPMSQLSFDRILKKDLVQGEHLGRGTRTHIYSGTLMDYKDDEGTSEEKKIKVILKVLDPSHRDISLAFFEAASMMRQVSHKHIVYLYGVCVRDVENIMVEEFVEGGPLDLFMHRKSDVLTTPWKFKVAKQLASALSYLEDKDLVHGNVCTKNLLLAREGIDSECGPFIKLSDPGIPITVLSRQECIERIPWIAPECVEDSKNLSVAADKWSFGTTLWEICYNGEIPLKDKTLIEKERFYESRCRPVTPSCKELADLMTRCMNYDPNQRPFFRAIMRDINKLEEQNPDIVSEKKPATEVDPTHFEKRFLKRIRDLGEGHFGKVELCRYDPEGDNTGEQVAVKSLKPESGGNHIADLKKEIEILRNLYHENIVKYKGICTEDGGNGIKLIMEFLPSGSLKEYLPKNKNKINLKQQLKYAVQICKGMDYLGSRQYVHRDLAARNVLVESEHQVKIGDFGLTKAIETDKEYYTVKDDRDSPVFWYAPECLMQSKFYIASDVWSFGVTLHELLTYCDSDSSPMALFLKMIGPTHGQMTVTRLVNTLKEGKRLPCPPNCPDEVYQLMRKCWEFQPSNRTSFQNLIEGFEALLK
- assayExplanation: Lance Ultra Kinase Assay, recombinant JAK1
- runParameters: 5 mM ATP
readoutKind: IC50 (nM)
Form entry: value (nM) — number only.

Look over these answered cases.
{"molecularString": "COC[C@H](C(=O)Nc1cccc2c(-c3nc(Nc4ccc(-c5ncco5)nc4)ncc3F)c[nH]c12)N1CCN(C)CC1", "IC50, nM": 0.24}
{"molecularString": "COC[C@H](C(=O)Nc1cccc2c(-c3nc(Nc4ccc5nc[nH]c5c4)ncc3F)c[nH]c12)N1CCN(C)CC1", "IC50, nM": 0.14}
{"molecularString": "COCCOc1ccc(Nc2ncc(F)c(-c3c[nH]c4c(NC(=O)[C@@H](COC)N5CCN(C)CC5)cccc34)n2)cn1", "IC50, nM": 0.32}

Record request: IC50 value, item CNC(=O)COc1cncc(Nc2ncc(F)c(-c3c[nH]c4c(NC(=O)[C@@H](COC)N5CCN(C)CC5)cccc34)n2)c1 0.22

----------
- testedOn: JAK1 (Homo sapiens, UniProt P23458)
- assayExplanation: Lance Ultra Kinase Assay, recombinant JAK1
- runParameters: 5 mM ATP
# note: exactly 200 pM is not below, so it is Not satisfied; use Satisfied for IC50 strictly under it

The following molecules have reported results that may help.
{"molecule": "CCOC(=O)Cc1ccc(Nc2ncc(F)c(-c3c[nH]c4c(NC(=O)[C@@H](COC)N5CCN(C)CC5)cccc34)n2)cn1", "testedOn": "JAK1 (Homo sapiens, UniProt P23458)", "classLabel": "Satisfied"}
{"molecule": "CCOC(=O)c1ccc(Nc2ncc(F)c(-c3c[nH]c4c(NC(=O)[C@@H](COC)N5CCN(C)CC5)cccc34)n2)cn1", "testedOn": "JAK1 (Homo sapiens, UniProt P23458)", "classLabel": "Not satisfied"}
{"molecule": "COC[C@H](C(=O)Nc1cccc2c(-c3nc(Nc4cnn(C5CCOC5)c4)ncc3F)c[nH]c12)N1CCN(C)CC1 (single isomer, unassigned; isomer 1) [Example 30]", "testedOn": "JAK1 (Homo sapiens, UniProt P23458)", "classLabel": "Satisfied"}
{"molecule": "COC[C@H](C(=O)Nc1cccc2c(-c3nc(Nc4ccc(-c5cnco5)nc4)ncc3F)c[nH]c12)N1CCN(C)CC1", "testedOn": "JAK1 (Homo sapiens, UniProt P23458)", "classLabel": "Not satisfied"}
{"molecule": "COC[C@H](C(=O)Nc1cccc2c(-c3nc(Nc4ccc(C(C)O)nc4)ncc3F)c[nH]c12)N1CCN(C)CC1 (single isomer, unassigned; isomer 2) [Example 9]", "testedOn": "JAK1 (Homo sapiens, UniProt P23458)", "classLabel": "Not satisfied"}

Consider the molecule COC[C@H](C(=O)Nc1cccc2c(-c3nc(Nc4cnc(CO)c(OC)c4)ncc3F)c[nH]c12)N1CCN(C)CC1 . Is its IC50 strictly less than 200 pM? Satisfied

Consider the molecule COC[C@H](C(=O)Nc1cccc2c(-c3nc(Nc4ccc5ncoc5c4)ncc3F)c[nH]c12)N1CCN(C)CC1 . Is its IC50 strictly less than 200 pM? Satisfied

Consider the molecule COC[C@H](C(=O)Nc1cccc2c(-c3nc(Nc4cncc(O)c4)ncc3F)c[nH]c12)N1CCN(C)CC1 . Is its IC50 strictly less than 200 pM? Satisfied

Consider the molecule COC[C@H](C(=O)Nc1cccc2c(-c3nc(Nc4cnc5cn[nH]c5c4)ncc3F)c[nH]c12)N1CCN(C)CC1 . Is its IC50 strictly less than 200 pM? Not satisfied

Consider the molecule CNC(=O)Cc1ccc(Nc2ncc(F)c(-c3c[nH]c4c(NC(=O)[C@@H](COC)N5CCN(C)CC5)cccc34)n2)cn1 . Is its IC50 strictly less than 200 pM? Not satisfied

Consider the molecule COC[C@H](C(=O)Nc1cccc2c(-c3nc(Nc4cnc(C(=O)OC)c(C)c4)ncc3F)c[nH]c12)N1CCN(C)CC1 . Is its IC50 strictly less than 200 pM? Satisfied

Consider the molecule COC[C@H](C(=O)Nc1cccc2c(-c3nc(Nc4ccc(-n5ccnc5)nc4)ncc3F)c[nH]c12)N1CCN(C)CC1 . Is its IC50 strictly less than 200 pM? Not satisfied

Consider the molecule COC[C@H](C(=O)Nc1cccc2c(-c3nc(Nc4cnc(C)c(C(=O)OC)c4)ncc3F)c[nH]c12)N1CCN(C)CC1 . Is its IC50 strictly less than 200 pM? Not satisfied

Consider the molecule COC[C@H](C(=O)Nc1cccc2c(-c3nc(Nc4ccc(NC(=O)OC)nc4)ncc3F)c[nH]c12)N1CCN(C)CC1 . Is its IC50 strictly less than 200 pM? Not satisfied

Consider the molecule COC[C@H](C(=O)Nc1cccc2c(-c3nc(Nc4ccc5cn[nH]c5c4)ncc3F)c[nH]c12)N1CCN(C)CC1 . Is its IC50 strictly less than 200 pM? Not satisfied

Consider the molecule COC[C@H](C(=O)Nc1cccc2c(-c3nc(Nc4ccc5ncsc5c4)ncc3F)c[nH]c12)N1CCN(C)CC1 . Is its IC50 strictly less than 200 pM? Satisfied

Consider the molecule COC[C@H](C(=O)Nc1cccc2c(-c3nc(Nc4ccc(OCCO)nc4)ncc3F)c[nH]c12)N1CCN(C)CC1 . Is its IC50 strictly less than 200 pM? Not satisfied

Consider the molecule COC[C@H](C(=O)Nc1cccc2c(-c3nc(Nc4ccc5c(c4)C(=O)NCC5)ncc3F)c[nH]c12)N1CCN(C)CC1 . Is its IC50 strictly less than 200 pM? Not satisfied

Consider the molecule COC[C@H](C(=O)Nc1cccc2c(-c3nc(Nc4ccc5ocnc5c4)ncc3F)c[nH]c12)N1CCN(C)CC1 . Is its IC50 strictly less than 200 pM? Not satisfied

Consider the molecule COC[C@H](C(=O)Nc1cccc2c(-c3nc(Nc4ccc5scnc5c4)ncc3F)c[nH]c12)N1CCN(C)CC1 . Is its IC50 strictly less than 200 pM? Satisfied

Consider the molecule COC[C@H](C(=O)Nc1cccc2c(-c3nc(Nc4ccc5[nH]ncc5c4)ncc3F)c[nH]c12)N1CCN(C)CC1 . Is its IC50 strictly less than 200 pM? Satisfied

Consider the molecule COC[C@H](C(=O)Nc1cccc2c(-c3nc(Nc4ccc(NC(=O)CO)nc4)ncc3F)c[nH]c12)N1CCN(C)CC1 . Is its IC50 strictly less than 200 pM? Satisfied

Consider the molecule CCC(=O)Nc1ccc(Nc2ncc(F)c(-c3c[nH]c4c(NC(=O)[C@@H](COC)N5CCN(C)CC5)cccc34)n2)cn1 . Is its IC50 strictly less than 200 pM? Satisfied

Consider the molecule COC[C@H](C(=O)Nc1cccc2c(-c3nc(Nc4cnn(C5CCOC5)c4)ncc3F)c[nH]c12)N1CCN(C)CC1 (single isomer, unassigned; isomer 2) [Example 33] . Is its IC50 strictly less than 200 pM? Satisfied

Data credit: patent US12606544B2
